# METHOD: Multiple ascending dose
# Format: in vivo, human
# TEST CONTEXT: multiple iv 300 mg over 1 h every 12 h x7, n=6, mean (SD)

{"SMILES": "CCOc1cc(CN2CCOCC2)cc2[nH]c(=O)c3c(c12)NCCC3.Cl.Cl.O.O", "t1/2z / h": 2.74}

---

# METHOD: Multiple ascending dose
# Type: in vivo, human
# TEST CONTEXT: multiple iv 450 mg over 1 h every 12 h x7, n=6, mean (SD)
PROPERTY NAME: t1/2z (h)

{"SMILES": "CCOc1cc(CN2CCOCC2)cc2[nH]c(=O)c3c(c12)NCCC3.Cl.Cl.O.O", "PROPERTY NAME": "t1/2z", "QUANTITY UNIT": "h", "NUMERIC RESULT": 3.5}

---

# METHOD: Multiple ascending dose
# Type: in vivo, human
# TEST CONTEXT: multiple iv, all doses 150-450 mg, Total n=18, mean (SD)
PROPERTY NAME: t1/2z

{"COMPOUND": "CCOc1cc(CN2CCOCC2)cc2[nH]c(=O)c3c(c12)NCCC3.Cl.Cl.O.O [JPI-289]", "RESULT": "2.89 h"}
